Recorded measurements of soluble fraction (log2), one per entry
Assay: soluble fraction after stress (log2 fold change); higher = more stays soluble; pooled small domains, quantitative proteomics;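 also: 20 min heating vs room temperature control held 20 min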
Conditions: stress: 75 degC

{"INPUT_SEQUENCE": "HMNLTLMDALKAAGLPVDGINLSMVNKMMEEQMPIDKTSLNQMYQLVQDNKDINVTTLVELKRLG", "OPERATOR": "=", "soluble fraction (log2)": 0.0398}
{"INPUT_SEQUENCE": "HMTNQEFNEVFKLLLAAYPNTKDKESVATIYFLTIANELTKKEFAEAVVKILKTRKSGFIPQPAEILEVAK", "OPERATOR": "=", "soluble fraction (log2)": -2.54}
{"INPUT_SEQUENCE": "HMRPNREKDMADLEKLAPFLLQMLTNYAQMTGDEKPLNAFITRFGYAAQIRDIQDFFMGPWHPA", "OPERATOR": "≥", "soluble fraction (log2)": 1.04}
{"INPUT_SEQUENCE": "HMDYNSYGLTERELELVDYVLKGYSRKEMAEASGLKVNTIGSYMKKIYRKLNIHNRTELKERFI", "OPERATOR": "=", "soluble fraction (log2)": -0.119}
{"INPUT_SEQUENCE": "HMDSDIGQQLKILLTVGTFMPSTELKAIAQQFGMKKPTDLKEWVELESDTQRIKGNPTKGYWINEINDL", "OPERATOR": "=", "soluble fraction (log2)": -0.682}
{"INPUT_SEQUENCE": "HMEIITIVSDINGKRIDAWLSEKLENYSRSFIQKLIQNENVKVNNNIVKANYKLKNGDAVAVSIPEPV", "OPERATOR": "=", "soluble fraction (log2)": 0.179}
{"INPUT_SEQUENCE": "HMKITADQEIETAINYFKKSIAEKGWKGVNPDEFKQMNDYLSETFGYSATIKFQKALDEQGLMVDE", "OPERATOR": "=", "soluble fraction (log2)": -0.0068}
{"INPUT_SEQUENCE": "HMGMFNENLRFLRQKRQMSQQAFASILGIPRTTYSEYEKGNTEPNLKLLIRLSELLDVSLDNLISDDLTHN", "OPERATOR": "=", "soluble fraction (log2)": -2.82}
{"INPUT_SEQUENCE": "HMKAEKEIEKIKFTIYNEFKRKQEENHFLPPWDGTKMLRQFVLGVVANNPKYQHVNTDILYRDLLLLYYQ", "OPERATOR": "=", "soluble fraction (log2)": -2}
{"INPUT_SEQUENCE": "HMSVDDEQLLKIIDDIFQQNPQAVTDAKTDSNAIHFLIGQVMKETKGHADHAISKEIIEKKLS", "OPERATOR": "=", "soluble fraction (log2)": 0.0407}
{"INPUT_SEQUENCE": "HMRTLSAGVAGRLRADILNGLLEPGRRLGMAELTERYGAGMSPVREALSRLVGEGLVQSEGQRGFRVA", "OPERATOR": "=", "soluble fraction (log2)": -0.446}
{"INPUT_SEQUENCE": "HMNTIFSVNGPVVKVKDTKDFSMMEMVYVGEKKLIGEVIGITESFTTIQVYEVTTGLKVGEPVYTTGAPM", "OPERATOR": "=", "soluble fraction (log2)": -0.361}
{"INPUT_SEQUENCE": "HMENNIRLSVPDTESGQRIDSYLAEQIPGLTRSAVQNLLAEQAVTIAGKAVKKNYKLLGGEDILVQLPEVR", "OPERATOR": "=", "soluble fraction (log2)": 0.217}
{"INPUT_SEQUENCE": "HMSMFAQQLKDLRKKIPGLTQTDMAKKLGIAKTTYASYEQGKRTPDIETQNKIADFFNVSLDYLHG", "OPERATOR": "=", "soluble fraction (log2)": -0.302}
{"INPUT_SEQUENCE": "HMDVSLVEQTQRDILEYISKNNSNAQLPKEQEFVGLLGVSRVVVREALSRLRALGIIETKRKKGTVVVVPE", "OPERATOR": "=", "soluble fraction (log2)": -1.09}
{"INPUT_SEQUENCE": "HMPTGRVVIPLNRLTASDVARILDEAYGRDHNFEVVKPSRLAKGIIVIGPKSEIDGIKELLAH", "OPERATOR": "=", "soluble fraction (log2)": -0.829}
{"INPUT_SEQUENCE": "HMTSRWEIGYNVAKKYYDEHGNLDVERAVYDNFELKKWLNTQRYKNSAGTLAEKYKIKLDELGMNWER", "OPERATOR": "=", "soluble fraction (log2)": -0.214}
